- TGT: Adrenergic α2B (Homo sapiens, UniProt P18089)
- Sequence (P18089 whole entry): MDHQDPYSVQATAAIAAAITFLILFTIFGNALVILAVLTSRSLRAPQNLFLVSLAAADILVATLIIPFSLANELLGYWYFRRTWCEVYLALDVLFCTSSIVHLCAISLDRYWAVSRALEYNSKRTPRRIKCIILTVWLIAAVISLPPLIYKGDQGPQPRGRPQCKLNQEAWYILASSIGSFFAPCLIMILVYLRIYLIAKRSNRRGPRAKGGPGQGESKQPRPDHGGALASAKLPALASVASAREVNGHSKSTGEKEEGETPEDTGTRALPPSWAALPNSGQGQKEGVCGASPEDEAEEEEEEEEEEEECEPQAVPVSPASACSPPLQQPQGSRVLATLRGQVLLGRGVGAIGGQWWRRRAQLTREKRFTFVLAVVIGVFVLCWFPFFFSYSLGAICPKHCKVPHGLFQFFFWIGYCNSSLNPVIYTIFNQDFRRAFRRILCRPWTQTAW
PROPERTY_NAME: IC50 (nM)
Note: unit nM is implicit; provide only the numeric part.

Q: Consider the compound "c1ccc2c(c1)N=C(N1CCNCC1)c1ccccc1S2" and give its measured IC50.
Ans: 451

###

- TGT: dopamine D2 receptor (Homo sapiens, UniProt P14416)
- Sequence (P14416 whole entry): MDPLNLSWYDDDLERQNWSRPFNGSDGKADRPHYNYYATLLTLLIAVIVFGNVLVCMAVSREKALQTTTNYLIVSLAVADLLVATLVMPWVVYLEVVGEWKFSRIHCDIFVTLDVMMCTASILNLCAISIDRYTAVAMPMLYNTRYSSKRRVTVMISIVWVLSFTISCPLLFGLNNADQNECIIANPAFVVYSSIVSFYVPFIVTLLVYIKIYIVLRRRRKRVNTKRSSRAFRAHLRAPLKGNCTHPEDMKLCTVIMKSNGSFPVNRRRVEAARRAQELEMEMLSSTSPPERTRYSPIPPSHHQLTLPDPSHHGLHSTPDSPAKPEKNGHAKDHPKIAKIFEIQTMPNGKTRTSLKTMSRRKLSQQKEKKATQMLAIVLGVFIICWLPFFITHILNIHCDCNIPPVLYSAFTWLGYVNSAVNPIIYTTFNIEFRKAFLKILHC
- RUN_DESCRIPTION: In vitro binding, dopamine D2 receptor
- SETTINGS: dihydrochloride salt; read-out: binding affinity K1
PROPERTY_NAME: pKi
// pKi is dimensionless: -log10 of concentration (M)

Q: Consider the compound Cl.Cl.c1ccc2c(c1)N=C(N1CCNCC1)c1ccccc1S2 [Example 2, dihydrochloride salt] and give its measured pKi.
Ans: 6.63

###

- TGT: Adrenergic α1A (Rattus norvegicus, UniProt P43140)
- Construct: 203100
- Sequence (P43140 1-466): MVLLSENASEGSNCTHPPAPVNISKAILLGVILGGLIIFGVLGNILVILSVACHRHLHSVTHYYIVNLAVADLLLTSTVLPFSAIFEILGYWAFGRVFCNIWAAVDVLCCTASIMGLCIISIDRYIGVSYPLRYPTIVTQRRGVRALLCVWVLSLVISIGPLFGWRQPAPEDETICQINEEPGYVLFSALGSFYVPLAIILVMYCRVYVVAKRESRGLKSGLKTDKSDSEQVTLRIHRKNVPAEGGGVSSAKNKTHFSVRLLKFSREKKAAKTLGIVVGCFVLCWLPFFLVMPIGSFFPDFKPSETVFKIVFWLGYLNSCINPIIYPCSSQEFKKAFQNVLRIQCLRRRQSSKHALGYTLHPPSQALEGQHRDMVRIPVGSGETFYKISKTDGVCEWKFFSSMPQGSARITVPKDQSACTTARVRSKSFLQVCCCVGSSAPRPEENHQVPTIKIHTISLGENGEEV
- RUN_DESCRIPTION: Radioligand binding 203100 Adrenergic α1A
- SETTINGS: read-out: ki
PROPERTY_NAME: Ki (nM)
Note: unit nM is implicit; provide only the numeric part.

Q: Consider the compound "c1ccc2c(c1)N=C(N1CCNCC1)c1ccccc1S2" and give its measured Ki.
Ans: 108

###

- TGT: Adrenergic α2A (Homo sapiens)
- Sequence (P08913 1-465): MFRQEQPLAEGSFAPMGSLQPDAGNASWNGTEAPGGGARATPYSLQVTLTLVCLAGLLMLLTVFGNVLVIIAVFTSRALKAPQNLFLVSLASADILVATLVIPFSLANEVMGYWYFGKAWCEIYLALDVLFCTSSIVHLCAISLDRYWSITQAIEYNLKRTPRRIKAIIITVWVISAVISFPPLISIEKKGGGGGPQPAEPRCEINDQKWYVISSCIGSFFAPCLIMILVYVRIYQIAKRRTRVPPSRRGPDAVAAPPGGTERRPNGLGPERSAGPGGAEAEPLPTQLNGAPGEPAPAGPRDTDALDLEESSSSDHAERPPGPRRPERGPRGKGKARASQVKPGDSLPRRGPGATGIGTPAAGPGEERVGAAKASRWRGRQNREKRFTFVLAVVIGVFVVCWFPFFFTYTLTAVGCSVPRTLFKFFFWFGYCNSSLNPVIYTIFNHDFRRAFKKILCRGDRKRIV
PROPERTY_NAME: Ki (nM)
Note: unit nM is implicit; provide only the numeric part.

Q: Lab request: please report Ki under test system Adrenergic α2A (Homo sapiens) for "c1ccc2c(c1)N=C(N1CCNCC1)c1ccccc1S2"
Ans: 1060

###

Sequence of the target: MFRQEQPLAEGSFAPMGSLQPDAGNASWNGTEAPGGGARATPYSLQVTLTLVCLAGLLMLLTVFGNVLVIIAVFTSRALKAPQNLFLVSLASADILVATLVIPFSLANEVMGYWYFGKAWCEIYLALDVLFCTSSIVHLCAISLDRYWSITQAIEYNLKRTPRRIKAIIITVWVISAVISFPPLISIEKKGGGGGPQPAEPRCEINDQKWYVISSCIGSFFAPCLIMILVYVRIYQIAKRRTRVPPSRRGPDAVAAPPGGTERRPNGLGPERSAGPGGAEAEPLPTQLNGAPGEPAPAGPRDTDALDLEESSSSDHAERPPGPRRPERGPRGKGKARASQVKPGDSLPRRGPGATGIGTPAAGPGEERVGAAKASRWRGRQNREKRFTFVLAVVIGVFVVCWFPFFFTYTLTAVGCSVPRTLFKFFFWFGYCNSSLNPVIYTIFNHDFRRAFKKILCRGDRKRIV
PROPERTY_NAME: IC50 (nM)
Note: unit nM is implicit; provide only the numeric part.

Q: Consider the molecule "c1ccc2c(c1)N=C(N1CCNCC1)c1ccccc1S2" and give its measured IC50.
Ans: 2820

###

- RUN_DESCRIPTION: Plasma levels in satellite exposure animals (Geller-Seifter)
- Format: in vivo
- SETTINGS: Long Evans, rat, subcutaneous, 2 mg/kg s.c., 0.25 hours after administration
PROPERTY_NAME: concentration at 0.25 h (µM)
Note: unit µM is implicit; provide only the numeric part.

Q: Consider the compound "c1ccc2c(c1)N=C(N1CCNCC1)c1ccccc1S2" and give its measured concentration at 0.25 h.
Ans: 4.8

###

- RUN_DESCRIPTION: Plasma levels in satellite exposure animals (Geller-Seifter)
- Format: in vivo
- SETTINGS: Long Evans, rat, subcutaneous, 10 mg/kg s.c., 0.25 hours after administration
PROPERTY_NAME: concentration at 0.25 h (µM)
Note: unit µM is implicit; provide only the numeric part.

Q: Consider the compound "c1ccc2c(c1)N=C(N1CCNCC1)c1ccccc1S2" and give its measured concentration at 0.25 h.
Ans: 19.4

###

- TGT: Adrenergic α1B (Rattus norvegicus, UniProt P15823)
- Construct: 203200
- Sequence (P15823 1-515): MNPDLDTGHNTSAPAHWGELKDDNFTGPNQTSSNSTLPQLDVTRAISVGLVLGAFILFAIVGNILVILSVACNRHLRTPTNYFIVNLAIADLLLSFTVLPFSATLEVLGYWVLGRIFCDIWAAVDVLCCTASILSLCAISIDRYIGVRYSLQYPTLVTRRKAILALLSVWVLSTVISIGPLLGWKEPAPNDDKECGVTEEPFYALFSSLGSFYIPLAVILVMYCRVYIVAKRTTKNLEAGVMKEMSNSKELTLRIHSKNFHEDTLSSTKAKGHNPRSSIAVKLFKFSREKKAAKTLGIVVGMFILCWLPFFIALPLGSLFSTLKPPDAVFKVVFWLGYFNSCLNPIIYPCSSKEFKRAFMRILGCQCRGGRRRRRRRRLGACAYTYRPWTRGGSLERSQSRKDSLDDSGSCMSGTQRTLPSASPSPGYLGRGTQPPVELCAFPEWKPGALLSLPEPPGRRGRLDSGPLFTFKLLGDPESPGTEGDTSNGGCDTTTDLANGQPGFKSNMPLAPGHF
- RUN_DESCRIPTION: Radioligand binding 203200 Adrenergic α1B
- SETTINGS: read-out: ki
- Description: Receptor binding methods, (α-adrenergic subtype specific, are provided below.
PROPERTY_NAME: Ki (µM)
Note: unit µM is implicit; provide only the numeric part.

Q: Consider the molecule "c1ccc2c(c1)N=C(N1CCNCC1)c1ccccc1S2" and give its measured Ki.
Ans: 0.075

###

- TGT: Adrenergic α2B (Homo sapiens)
- RUN_DESCRIPTION: Radioligand binding Adrenergic α2B
PROPERTY_NAME: Ki

Q: Consider the compound "c1ccc2c(c1)N=C(N1CCNCC1)c1ccccc1S2" and give its measured Ki.
Ans: 206 nM

###

- TGT: brain serotonin 5-HT2 receptor (Homo sapiens)
- Sequence (P28223 whole entry): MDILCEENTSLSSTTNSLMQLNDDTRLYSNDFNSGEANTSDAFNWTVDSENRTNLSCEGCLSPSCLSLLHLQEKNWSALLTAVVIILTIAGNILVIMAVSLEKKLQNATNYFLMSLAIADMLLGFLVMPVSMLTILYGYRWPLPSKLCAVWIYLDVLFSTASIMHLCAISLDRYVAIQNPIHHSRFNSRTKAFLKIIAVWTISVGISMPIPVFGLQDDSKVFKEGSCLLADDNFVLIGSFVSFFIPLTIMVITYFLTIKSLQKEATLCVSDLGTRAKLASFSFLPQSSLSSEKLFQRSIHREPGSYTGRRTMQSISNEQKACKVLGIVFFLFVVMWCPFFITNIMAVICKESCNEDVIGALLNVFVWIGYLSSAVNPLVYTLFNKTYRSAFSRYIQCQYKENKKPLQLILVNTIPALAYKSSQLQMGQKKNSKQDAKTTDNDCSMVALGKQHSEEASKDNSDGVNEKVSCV
PROPERTY_NAME: Ki (nM)
Note: unit nM is implicit; provide only the numeric part.

Q: Lab request: please report Ki under test system brain serotonin 5-HT2 receptor (Homo sapiens) for Cl.Cl.c1ccc2c(c1)N=C(N1CCNCC1)c1ccccc1S2 [Example 2, dihydrochloride salt]
Ans: 27

###

- TGT: Adrenergic α2* Non-Selective
- RUN_DESCRIPTION: Radioligand binding 203900 Adrenergic α2* Non-Selective
PROPERTY_NAME: pKi
// pKi is dimensionless: -log10 of concentration (M)

Q: Consider the compound "c1ccc2c(c1)N=C(N1CCNCC1)c1ccccc1S2" and give its measured pKi.
Ans: 5.89

###

- TGT: Adrenergic α1D (Homo sapiens, UniProt P25100)
- Construct: host or cells: HEK-293 cells
- Sequence (P25100 whole entry): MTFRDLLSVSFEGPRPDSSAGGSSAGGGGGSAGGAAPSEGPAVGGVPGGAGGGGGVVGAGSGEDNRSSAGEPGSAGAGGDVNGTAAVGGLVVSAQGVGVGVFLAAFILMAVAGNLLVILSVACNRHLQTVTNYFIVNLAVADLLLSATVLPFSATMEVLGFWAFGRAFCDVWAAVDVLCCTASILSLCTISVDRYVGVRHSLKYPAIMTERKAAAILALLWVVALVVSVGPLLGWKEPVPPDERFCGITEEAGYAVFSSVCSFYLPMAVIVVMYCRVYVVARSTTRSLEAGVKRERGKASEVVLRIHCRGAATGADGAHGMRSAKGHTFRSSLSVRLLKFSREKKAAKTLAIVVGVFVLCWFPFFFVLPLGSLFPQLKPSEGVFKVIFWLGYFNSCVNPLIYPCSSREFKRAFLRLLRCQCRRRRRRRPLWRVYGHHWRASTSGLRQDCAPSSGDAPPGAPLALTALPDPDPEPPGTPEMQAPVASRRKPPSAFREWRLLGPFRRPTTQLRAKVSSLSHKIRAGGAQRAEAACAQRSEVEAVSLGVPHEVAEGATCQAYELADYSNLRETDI
- RUN_DESCRIPTION: Radioligand binding 203400 Adrenergic α1D
- SETTINGS: α1D; read-out: Affinity
PROPERTY_NAME: pKi
// pKi is dimensionless: -log10 of concentration (M)

Q: Consider the compound "c1ccc2c(c1)N=C(N1CCNCC1)c1ccccc1S2" and give its measured pKi.
Ans: 6.73

###

- TGT: Adrenergic α1D (Homo sapiens)
PROPERTY_NAME: pIC50
// pIC50 is dimensionless: -log10 of concentration (M)

Q: Lab request: please report pIC50 under test system Adrenergic α1D (Homo sapiens) for "c1ccc2c(c1)N=C(N1CCNCC1)c1ccccc1S2"
Ans: 6.42
